SYSTEM_UNDER_TEST: mitochondrial branched-chain aminotransferase (mBCAT2) (Mus musculus)
Sequence (O35855 28-393): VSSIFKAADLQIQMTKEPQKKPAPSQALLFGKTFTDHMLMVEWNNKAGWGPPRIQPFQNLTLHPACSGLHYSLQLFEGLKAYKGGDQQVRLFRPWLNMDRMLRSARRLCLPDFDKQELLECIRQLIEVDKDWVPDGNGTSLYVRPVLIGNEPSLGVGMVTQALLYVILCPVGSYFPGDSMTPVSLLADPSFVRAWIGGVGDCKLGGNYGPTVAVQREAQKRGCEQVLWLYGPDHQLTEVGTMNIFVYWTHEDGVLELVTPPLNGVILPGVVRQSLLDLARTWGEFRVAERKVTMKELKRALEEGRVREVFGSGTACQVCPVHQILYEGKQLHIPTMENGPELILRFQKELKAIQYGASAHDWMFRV
PARAMETER: Ki (mM)
One number for each entry, in mM.

Summary for this compound, C=C(CC(=O)O)C(=O)O [ITA, itaconate] : Ki is 15.3

The measured values listed here are drawn from paper PMC12215950.
